Study target: human DGKζ (Homo sapiens (Human))
Sequence (Q13574 other isoform, or with tags, fused parts or gaps): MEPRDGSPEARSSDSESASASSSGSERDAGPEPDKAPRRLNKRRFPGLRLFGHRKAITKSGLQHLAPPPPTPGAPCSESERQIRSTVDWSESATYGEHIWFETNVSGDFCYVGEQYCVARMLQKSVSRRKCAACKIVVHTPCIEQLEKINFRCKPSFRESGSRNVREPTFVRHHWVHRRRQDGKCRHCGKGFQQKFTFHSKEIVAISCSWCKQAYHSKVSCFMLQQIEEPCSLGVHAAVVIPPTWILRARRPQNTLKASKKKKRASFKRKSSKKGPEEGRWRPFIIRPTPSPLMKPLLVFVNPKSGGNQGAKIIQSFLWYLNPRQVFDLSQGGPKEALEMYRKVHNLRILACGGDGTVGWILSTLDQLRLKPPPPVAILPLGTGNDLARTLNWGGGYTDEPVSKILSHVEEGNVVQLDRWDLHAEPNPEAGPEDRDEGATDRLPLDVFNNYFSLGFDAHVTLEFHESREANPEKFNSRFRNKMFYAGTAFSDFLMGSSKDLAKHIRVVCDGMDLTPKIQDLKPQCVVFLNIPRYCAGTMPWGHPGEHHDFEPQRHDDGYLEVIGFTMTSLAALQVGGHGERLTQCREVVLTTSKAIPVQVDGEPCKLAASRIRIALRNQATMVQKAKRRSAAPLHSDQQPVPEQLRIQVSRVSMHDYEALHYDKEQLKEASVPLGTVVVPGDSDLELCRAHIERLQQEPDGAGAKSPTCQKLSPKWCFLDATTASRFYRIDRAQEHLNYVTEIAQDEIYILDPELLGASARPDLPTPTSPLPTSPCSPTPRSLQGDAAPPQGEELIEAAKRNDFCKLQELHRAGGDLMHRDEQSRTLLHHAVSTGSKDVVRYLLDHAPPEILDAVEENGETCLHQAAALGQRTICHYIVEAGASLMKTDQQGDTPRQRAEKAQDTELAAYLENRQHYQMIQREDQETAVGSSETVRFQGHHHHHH
Assay notes: DGKζ LIPGLO assay (extruded liposome substrate)
Type: biochemical
Measurement context: DGKζ LIPGLO IC50, extruded liposome substrate
pIC50: −log10 of the molar value.
Each record here notes measured pIC50.

Molecule	pIC50
COc1cc(F)ccc1C(c1ccc(F)cc1)N1CCN(c2c([N+](=O)[O-])c(=O)n(C)c3ccc(C#N)nc23)CC1 (single isomer, unassigned) [Example 124]	6.80
CCC(c1ccc(F)cc1)N1CCN(c2c([N+](=O)[O-])c(=O)n(C)c3ccc(C#N)nc23)CC1 (single isomer, unassigned) [Example 33]	5.77
CC(c1ccc(F)cc1)N1CCN(c2c(C#N)c(=O)n(CC3CC3)c3ccc(Br)nc23)CC1 (single isomer, unassigned) [Example 163]	3.96
